Here the recorded Hepatotoxicity (severe hepatitis) is given for each entry.
Settings: human;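 note: human clinical data: severe hepatitis, meaning potentially life-threatening liver failure or clinically observed cases, the value counts how many indexed literature references report it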
// keep it numeric: no unit symbol after the value

Before answering, review these 5 worked examples.
CC[C@H]1OC(=O)[C@H](C)[C@@H](O[C@H]2C[C@@](C)(OC)[C@@H](O)[C@H](C)O2)[C@H](C)[C@@H](O[C@@H]2O[C@H](C)C[C@H](N(C)C)[C@H]2O)[C@](C)(OC)C[C@@H](C)C(=O)[C@H](C)[C@@H](O)[C@]1(C)O [CLARITHROMYCIN]: 4
CO/N=C(\C(=O)N[C@@H]1C(=O)N2C(C(=O)[O-])=C(C[n+]3cccc4c3CCC4)CS[C@H]12)c1csc(N)n1 [CEFPIROME]: 0
CC#C[C@]1(O)CC[C@H]2[C@@H]3CCC4=CC(=O)CCC4=C3[C@@H](c3ccc(N(C)C)cc3)C[C@@]21C [MIFEPRISTONE]: 0
O=C(O)Cc1ccccc1Oc1ccc(Cl)cc1Cl [FENCLOFENAC]: 0
C[C@]12C/C(=C/O)C(=O)C[C@@H]1CC[C@@H]1[C@@H]2CC[C@@]2(C)[C@H]1CC[C@]2(C)O [OXYMETHOLONE]: 2

Would you mind telling me what Hepatotoxicity (severe hepatitis) value was observed for CC[C@@]1(O)C[C@H](O[C@H]2C[C@H](N(C)C)[C@H](O[C@H]3C[C@H](O)[C@H](O[C@H]4CCC(=O)[C@H](C)O4)[C@H](C)O3)[C@H](C)O2)c2c(cc3c(c2O)C(=O)c2c(O)cccc2C3=O)[C@H]1C(=O)OC [ACLARUBICIN] ? 1

Same for CO[C@H]1/C=C/O[C@@]2(C)Oc3c(C)c(O)c4c(O)c(c(/C=N/N5CCN(C)CC5)c(O)c4c3C2=O)NC(=O)/C(C)=C\C=C\[C@H](C)[C@H](O)[C@@H](C)[C@@H](O)[C@@H](C)[C@H](OC(C)=O)[C@@H]1C [RIFAMPIN] 6

Okay, and N[C@H](C(=O)O)[C@@H]1CC(Cl)=NO1 [ACIVICIN] ? 0

Repeat with Nc1cc(N2CCCCC2)nc(N)[n+]1[O-] [MINOXIDIL] 0

What about CCCCC1C(=O)NN(c2ccccc2)C1=O (configuration not stated) [MOFEBUTAZONE] ? 0

Now the compound CC1CCc2cc(F)cc3c(=O)c(C(=O)O)cn1c23 (configuration not stated) [FLUMEQUINE] 0

Then what about the compound Cc1onc(-c2ccccc2Cl)c1C(=O)N[C@@H]1C(=O)N2[C@@H]1SC(C)(C)[C@@H]2C(=O)O [CLOXACILLIN] ? 0

Now the compound CO/N=C(\C(=O)N[C@@H]1C(=O)N2C(C(=O)O)=CCS[C@H]12)c1csc(N)n1 [CEFTIZOXIME] 0

Continue with CN1CCC(=C2c3ccccc3C=Cc3ccccc32)CC1 [CYPROHEPTADINE] 0

Do the same for CC(COc1ccccc1)NN (configuration not stated) [PHENOXYPROPAZINE] please 3

Can you check COCC(=O)Nc1c(I)c(C(=O)NCC(O)CO)c(I)c(C(=O)N(C)CC(O)CO)c1I (configuration not stated) [IOPROMIDE] next? 0

Another compound to look at: O=C(NCN1CCOCC1)c1cnccn1 [MORINAMIDE] 1

Can you handle C[C@H]1C[C@H]2[C@@H]3CCC4=CC(=O)C=C[C@]4(C)[C@@]3(Cl)[C@@H](O)C[C@]2(C)[C@@]1(O)C(=O)CO [BECLOMETHASONE] next? 0

Follow-up item: Nc1ccc(S(N)(=O)=O)cc1 [SULFANILAMIDE] 5

Can you check CC1(C)S[C@@H]2[C@H](NC(=O)C(C(=O)O)c3ccccc3)C(=O)N2[C@H]1C(=O)O (some centres not stated) [CARBENICILLIN] next? 0

Same question for COc1ccc(CCN(C)CCCC2(c3ccc(OC)c(OC)c3)S(=O)(=O)CCCS2(=O)=O)cc1OC please. 0
